Data provenance is patent US8569292B2.

Target: 11β-HSD1 (Homo sapiens, UniProt P28845)
Sequence (P28845 whole entry): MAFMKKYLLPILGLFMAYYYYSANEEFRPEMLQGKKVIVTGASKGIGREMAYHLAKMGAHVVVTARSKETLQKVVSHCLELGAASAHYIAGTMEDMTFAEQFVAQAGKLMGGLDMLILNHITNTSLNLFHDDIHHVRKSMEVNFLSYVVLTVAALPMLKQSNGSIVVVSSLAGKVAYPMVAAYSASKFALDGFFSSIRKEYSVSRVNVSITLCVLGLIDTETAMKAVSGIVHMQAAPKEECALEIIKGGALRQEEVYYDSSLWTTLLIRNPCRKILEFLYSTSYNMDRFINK
Test: Biological Test Example 4: microsomal 11β-HSD1 in the presence of 50% human plasma
Conditions: IC50 in Test Example 4 divided by IC50 in Test Example 1
Lab note: compare Shift with 6, writing met if less and not met if equal or more.

*Q* Below 6 on Shift? Entry C[C@@H](c1ccc(-c2cnc(C(C)(C)O)nc2)cc1)N1CC[C@](CC(C)(C)O)(c2ccccc2)OC1=O
*A* met

*Q* Below 6 on Shift? Entry C[C@@H](c1ccc(-c2ccc(C(=O)NC(C)(C)C)nn2)cc1)N1CC[C@](CC(C)(C)C#N)(c2ccccc2)OC1=O
*A* met

*Q* Below 6 on Shift? Entry Cc1cc(-c2ccc([C@H](C)N3CC[C@](CCCN(C)S(C)(=O)=O)(c4ccccc4)OC3=O)cc2)ccn1
*A* not met

*Q* Below 6 on Shift? Entry C[C@@H](c1ccc(-c2ccn(C)n2)cc1)N1CC[C@](CCCO)(c2ccccc2)OC1=O
*A* met

*Q* Below 6 on Shift? Entry Cc1ccc(-c2ccc([C@H](C)N3CC[C@](CCCO)(c4ccc(F)cc4)OC3=O)cc2)nn1
*A* met

*Q* Below 6 on Shift? Entry C[C@@H](c1ccc(-c2cccnn2)cc1)N1CC[C@](CCCO)(c2ccc(F)cc2)OC1=O
*A* met

*Q* Below 6 on Shift? Entry COc1ccc(-c2ccc([C@H](C)N3CC[C@](CCO)(c4ccccc4)OC3=O)cc2)cn1
*A* not met

*Q* Below 6 on Shift? Entry Cc1cn(-c2ncc(-c3ccc([C@H](C)N4CC[C@](CC(C)(C)O)(c5ccccc5)OC4=O)cc3)cn2)c(C)n1
*A* met

*Q* Below 6 on Shift? Entry C[C@@H](c1ccc(-c2ncc(C(=O)NC(C)(C)C)s2)cc1)N1CC[C@](CC(C)(C)O)(c2ccccc2)OC1=O
*A* met

*Q* Below 6 on Shift? Entry C[C@@H](c1ccc(-c2cnc(C(=O)NC3CC3)nc2)cc1)N1CC[C@](CC(C)(C)C#N)(c2ccccc2)OC1=O
*A* not met

*Q* Below 6 on Shift? Entry C[C@@H](c1ccc(-c2ccc(C(N)=O)cn2)cc1)N1CC[C@](CCCO)(c2ccccc2)OC1=O
*A* not met

*Q* Below 6 on Shift? Entry Cc1cc(-c2ccc([C@H](C)N3CC[C@](CC4(O)CC4)(c4ccc(F)cc4)OC3=O)cc2)ccn1
*A* not met

*Q* Below 6 on Shift? Entry C[C@@H](c1ccc(-c2cnc(C(=O)NC(C)(C)C)nc2)cc1)N1CC[C@](CC(C)(C)O)(c2ccccc2)OC1=O
*A* met

*Q* Below 6 on Shift? Entry CCOc1cc(-c2ccc([C@H](C)N3CC[C@](CC(C)(C)O)(c4ccccc4)OC3=O)cc2)cc(C)n1
*A* not met
